EXPERIMENTAL_SYSTEM: PI3Kα (p110[H1047R]/p85) kinase (Homo sapiens, UniProt P42336, H1047R)
Sequence (P42336 whole entry H1047R): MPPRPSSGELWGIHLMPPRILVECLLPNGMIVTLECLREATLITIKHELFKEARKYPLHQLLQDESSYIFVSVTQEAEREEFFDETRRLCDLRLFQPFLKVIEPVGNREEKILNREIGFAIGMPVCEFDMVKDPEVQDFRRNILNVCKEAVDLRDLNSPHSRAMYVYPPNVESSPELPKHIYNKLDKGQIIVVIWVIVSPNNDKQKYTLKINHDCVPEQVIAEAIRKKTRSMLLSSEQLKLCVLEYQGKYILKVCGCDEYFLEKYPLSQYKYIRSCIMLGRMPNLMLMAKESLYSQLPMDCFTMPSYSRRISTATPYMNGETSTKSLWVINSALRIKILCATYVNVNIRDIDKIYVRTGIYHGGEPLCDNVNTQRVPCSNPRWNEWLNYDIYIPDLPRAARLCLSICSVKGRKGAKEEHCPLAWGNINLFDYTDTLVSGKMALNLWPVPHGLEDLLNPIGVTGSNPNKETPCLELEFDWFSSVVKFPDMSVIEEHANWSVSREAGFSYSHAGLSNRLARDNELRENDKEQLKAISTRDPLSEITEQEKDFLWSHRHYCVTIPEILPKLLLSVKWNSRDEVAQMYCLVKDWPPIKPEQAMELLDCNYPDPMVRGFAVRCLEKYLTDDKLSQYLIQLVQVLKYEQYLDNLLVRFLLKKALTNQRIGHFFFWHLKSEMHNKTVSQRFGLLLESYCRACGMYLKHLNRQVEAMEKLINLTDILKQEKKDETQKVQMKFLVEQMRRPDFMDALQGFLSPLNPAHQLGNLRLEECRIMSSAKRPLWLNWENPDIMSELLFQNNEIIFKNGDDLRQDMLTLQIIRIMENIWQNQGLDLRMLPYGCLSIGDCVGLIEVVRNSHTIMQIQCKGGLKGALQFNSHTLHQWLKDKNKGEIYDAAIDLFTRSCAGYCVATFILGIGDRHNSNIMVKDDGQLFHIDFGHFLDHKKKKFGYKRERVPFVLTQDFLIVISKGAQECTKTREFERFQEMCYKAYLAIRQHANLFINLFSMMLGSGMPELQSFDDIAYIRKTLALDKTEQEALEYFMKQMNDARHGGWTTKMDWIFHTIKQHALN
Sequence (P27986 whole entry partner): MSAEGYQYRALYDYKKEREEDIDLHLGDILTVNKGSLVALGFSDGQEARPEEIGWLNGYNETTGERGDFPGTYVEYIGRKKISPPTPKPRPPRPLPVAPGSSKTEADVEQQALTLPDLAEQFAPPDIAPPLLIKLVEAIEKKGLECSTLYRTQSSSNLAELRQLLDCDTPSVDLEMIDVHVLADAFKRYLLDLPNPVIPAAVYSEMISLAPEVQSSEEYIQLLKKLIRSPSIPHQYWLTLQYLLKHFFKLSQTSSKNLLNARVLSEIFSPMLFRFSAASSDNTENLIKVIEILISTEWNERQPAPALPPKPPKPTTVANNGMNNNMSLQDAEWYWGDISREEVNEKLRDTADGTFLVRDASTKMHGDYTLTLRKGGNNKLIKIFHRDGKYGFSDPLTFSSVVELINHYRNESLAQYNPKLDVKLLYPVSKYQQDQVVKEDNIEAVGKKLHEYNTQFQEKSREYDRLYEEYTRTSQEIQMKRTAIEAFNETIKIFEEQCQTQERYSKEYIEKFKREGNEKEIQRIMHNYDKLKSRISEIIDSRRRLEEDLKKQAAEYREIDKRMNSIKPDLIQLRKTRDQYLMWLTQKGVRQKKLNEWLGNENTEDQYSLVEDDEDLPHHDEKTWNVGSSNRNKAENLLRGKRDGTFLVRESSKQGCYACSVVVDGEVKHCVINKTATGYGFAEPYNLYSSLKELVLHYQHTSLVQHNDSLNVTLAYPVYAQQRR
ASSAY_EXPLANATION: PI3Kα (p110[H1047R]/p85) kinase ADP-Glo Assay
Format: biochemical
CONDITIONS_USED: ADP-Glo Assay IC50 ratio, 25 uM ATP
OBSERVED_PROPERTY: selectivity: WT/H1047R

{"columns": ["COMPOUND", "READING"],
 "data": [
  ["Cc1cc(C(C)Nc2ccccc2C(=O)O)c2cc(-c3cccc(F)c3F)n(C)c(=O)c2c1 (stereo not shown)", 38.2],
  ["Cc1cc(C(C)Nc2ccccc2C(=O)O)c2cc(-c3cnc(O)nc3)n(C)c(=O)c2c1 (stereo not shown)", 24.3],
  ["Cc1cc(C(C)Nc2ccccc2C(=O)O)c2cc(-c3ccc(P(C)(C)=O)cc3)n(C)c(=O)c2c1 (stereo not shown)", 24.4],
  ["Cc1cc(C(C)Nc2ccccc2C(=O)O)c2cc(-c3ccccc3C#N)n(C)c(=O)c2c1 (stereo not shown)", 184.0],
  ["Cc1cc(C(C)Nc2ccccc2S(C)(=O)=O)c2cc(-c3ccccc3)n(C)c(=O)c2c1 (stereo not shown)", 6.0],
  ["CC#Cc1ccc(-c2cc3c(C(C)Nc4ccccc4C(=O)O)cc(C)cc3c(=O)n2C)cc1 (stereo not shown)", 25.2],
  ["Cc1cc([C@@H](C)Nc2ccccc2C(=O)O)c2cc(-c3ccc(C(C)(C)O)cc3)n(C)c(=O)c2c1", 17.0],
  ["Cc1cc(C(C)Nc2ccccc2C(=O)O)c2cc(-c3ccccc3C)n(C)c(=O)c2c1 (stereo not shown)", 139.3]
]}

P. Cc1cc([C@H](C)Nc2ccccc2C(=O)O)c2cc(-c3ccc(-c4cnn(C)c4)cc3)n(C)c(=O)c2c1
Q. COc1ncc(-c2cc3c(C(C)Nc4ccccc4C(=O)O)cc(C)cc3c(=O)n2C)cc1F (stereo not shown)
Pick one: P or Q . Which has the bigger selectivity: WT/H1047R number? Lab log: write the label of the selected item as the result.
Q
(Q: 29.7, P: 8.5)

P. Cc1cc(C(C)Nc2ccccc2C(=O)O)c2cc(-c3ccccc3F)n(C)c(=O)c2c1 (stereo not shown)
Q. Cc1cc(C(C)Nc2ccccc2C(=O)O)c2cc(-c3ccc(C(F)(F)F)nc3)n(C)c(=O)c2c1 (stereo not shown)
Pick one: P or Q . Which has the bigger selectivity: WT/H1047R number? Lab log: write the label of the selected item as the result.
Q

A. Cc1cc(C(C)Nc2ccccc2C(=O)O)c2cc(C(=O)Nc3ccccc3)n(C)c(=O)c2c1 (stereo not shown)
B. Cc1cc(C(C)Nc2ccccc2C(=O)O)c2cc(-c3ccc(CN4CCOCC4)nc3)n(C)c(=O)c2c1 (stereo not shown)
Pick one: A or B . Which has the bigger selectivity: WT/H1047R number? Lab log: write the label of the selected item as the result.
A
(A: 73.8, B: 29.7)
